# STUDY_SYSTEM: T1, huROR1-His (human ROR1 ECD AA30-406 with C-terminal His tag, made in house) (human, UniProt Q01973 30-406)
# T1 construct: range 30-406; Expressed in HEK293; also called antigen protein huROR1-His; not shown: C-terminal His tag
# T1 sequence (Q01973 30-406 limits assumed): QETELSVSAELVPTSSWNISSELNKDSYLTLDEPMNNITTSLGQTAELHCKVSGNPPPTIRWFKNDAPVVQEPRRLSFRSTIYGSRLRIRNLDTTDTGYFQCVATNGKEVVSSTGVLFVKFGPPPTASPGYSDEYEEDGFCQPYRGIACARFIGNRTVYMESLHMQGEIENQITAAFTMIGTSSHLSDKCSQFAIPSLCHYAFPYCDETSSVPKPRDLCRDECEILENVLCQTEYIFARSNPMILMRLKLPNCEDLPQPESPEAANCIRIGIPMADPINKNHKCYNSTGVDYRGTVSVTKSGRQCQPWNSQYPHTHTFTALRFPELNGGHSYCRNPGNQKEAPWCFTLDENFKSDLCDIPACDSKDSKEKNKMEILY
# EXPERIMENT_DESCRIPTION: Gator (BLI) Advanced Kinetics; antibody 30 nM, huROR1-His 480-7.5 nM

BINDER	koff (s⁻¹)
B31 (chimeric antibody) (antibody, human IgG1, kappa, V domains shown, ExpiCHO expression) VH: EVMLVESGGGLVKPGGSLKLSCAASGFTFSRYAMSWVRQTPEKRLEWVASISRGGSTYYPDSVKGRFTISRDNARNILYLQMSSLRSEDTAMYYCASYFGNYDAMDYWGQGTSVTVSS VL: DIQMNQSPSSMYASLGERVTITCKASQDINNYVSWFQQKPGKSPKTLIYRANRLVDGVPSRFSGSGSGQDYSFTISSLEYEDMGIYYCLQFDEFPYTFGGGTKLEIKR	0.00217
M71 (chimeric antibody) (antibody, human IgG1, kappa, V domains shown, ExpiCHO expression) VH: EVMLVESGGGLVKPGGSLKLSCAASGFTFSRYAMSWVRQTPEKRLEWVASINRGGTTYYPDSVKGRFTISRDNARDILYLQMSSLRSEDTAIYYCARDYYYGSSLYNGMDFWGQGTSVIVSS VL: DIQMTQSPSSMYASLGERVTITCKASQDINSYLSWFQQKPGKSPKTLIYRANRLVDGVPSRFSGSGSGQDYSLTISSLESEDMGIYYCLQFDEFPYTFGGGTKLEIKR	0.00054
B34 (chimeric antibody) (antibody, human IgG1, kappa, V domains shown, ExpiCHO expression) VH: EVQLVESGGGLVQPKGSLKLSCAASGFTFSRYAMSWVRQTPEKRLEWVASISTGGSPYYPDSVKGRFTISRDNARNILYLQMSSLKSEDTAMYYCARGYYYNSSPHWYFAVWGAGTSVTVSS VL: DIQMTQSPSSLSASLGERVTITCKASQDINSYLSWFQQKPGKSPKTLIYRANRLVDGVPSRFSGSGSGQDYSLTISSLEYEDMGIYYCLQYDEFPYTFGGGTKLEIKR	0.000609
